- measurement target: UniProt P00772
- Sequence (P00772 27-266): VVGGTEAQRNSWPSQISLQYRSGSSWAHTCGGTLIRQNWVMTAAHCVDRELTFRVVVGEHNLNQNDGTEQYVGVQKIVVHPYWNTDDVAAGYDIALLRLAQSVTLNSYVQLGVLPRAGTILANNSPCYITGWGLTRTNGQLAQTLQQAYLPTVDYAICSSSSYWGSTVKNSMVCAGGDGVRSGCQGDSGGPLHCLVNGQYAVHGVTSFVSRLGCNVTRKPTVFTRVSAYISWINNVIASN
- method summary: Resistance of pretreated radiolabelled elastin to hydrolysis by pancreatic elastase
- Assay type: biochemical, hog
- experimental context: elastin pretreated 24 hours, washed, then 0.05 mg pancreatic elastase; molar ratio inhibitor/enzyme 5 × 10^4
Residues, ends and D or L forms follow the SMILES beside them. *: point of attachment. Oleoyl = CCCCCCCC/C=C\CCCCCCCC(=O)*
readout kind: Percent inhibition relative to samples without pretreatment (%)

[[record]]
molecule = "CC(C)[C@H](NC(=O)[C@@H]1CCCN1C(=O)[C@H](C)NC(=O)[C@H](C)N)C(=O)O [H(Ala)2 Pro Valine, L-Alanyl-L-Alanyl-L-Prolyl-L-Valine, reference compound] (H-AAPV-OH)"
measurement_target = "UniProt P00772"
result = 0


I = CCCCCCCC/C=C\CCCCCCCC(=O)N[C@@H](C)C(=O)N[C@@H](C)C(=O)N1CCC[C@H]1C(=O)N[C@H](C(=O)O)C(C)C [Ol(Ala)2 Pro Valine] (Oleoyl-AAPV-OH)
II = C[C@H](N)C(=O)N[C@@H](C)C(=O)N1CCC[C@H]1C(=O)N[C@@H](C)C(=O)O [H(Ala)2 Pro Alanine, L-Alanyl-L-Alanyl-L-Proyl-Alanine, reference compound] (H-AAPA-OH)
III = CCCCCCCC/C=C\CCCCCCCC(=O)N[C@@H](C)C(=O)N[C@@H](C)C(=O)N1CCC[C@H]1C(=O)N[C@@H](C)C=O [Ol(Ala)2 Pro Alaninal] (Oleoyl-AAPA-aldehyde)
[Q] Write the entries in order, lowest recorded Percent inhibition relative to samples without pretreatment first. Would you mind listing the labels in the order requested?
[A] II, I, III

Taken from patent US4665053A.
